# Test system: Cryptococcus neoformans
# Assay Overview: Antifungal activity against Cryptococcus neoformans KCCM 50564 after 1 day
# Type: functional
# Experimental Conditions: KCCM 50564, 24 h
Measurement Label: MIC (µg/mL)
Expressed in µg/mL, but write only the number.

Here's what some known entries look like.
{"Compound": "O=C(NN1C(=O)[C@H](Cl)[C@H]1c1ccccc1O)c1cc(-c2ccc(Cl)cc2)n[nH]1 (racemic)", "Target Or Test System": "Cryptococcus neoformans", "MIC, µg/mL": 1.6}
{"Compound": "O=C(NN1C(=O)CSC1c1ccc(Cl)cc1)c1cc(-c2ccc(Cl)cc2)n[nH]1 (racemic)", "Target Or Test System": "Cryptococcus neoformans", "MIC, µg/mL": 12.5}
{"Compound": "OC(Cn1cncn1)(Cn1cncn1)c1ccc(F)cc1F", "Target Or Test System": "Cryptococcus neoformans", "MIC, µg/mL": 6.3}
{"Compound": "O=C(N/N=C/c1ccc(O)cc1)c1cc(-c2ccc(Cl)cc2)n[nH]1", "Target Or Test System": "Cryptococcus neoformans", "MIC, µg/mL": 50}
{"Compound": "COc1cc(/C=N/NC(=O)c2cc(-c3ccc(Cl)cc3)n[nH]2)ccc1O", "Target Or Test System": "Cryptococcus neoformans", "MIC, µg/mL": 1.6}

Prompt: State, in one line, measured MIC of O=C(NN1C(=O)CSC1c1ccccc1Cl)c1cc(-c2ccc(Cl)cc2)n[nH]1 (racemic)
Response: 1.6

----------
# Tested on: Staphylococcus aureus
# Assay Overview: Antibacterial activity against Staphylococcus aureus ATCC 29213
# Format: functional
Measurement Label: MIC (mg/L)
Expressed in mg/L, but write only the number.

Here's what some known entries look like.
{"Compound": "O=C(NN1C(=O)[C@H](Cl)[C@H]1c1ccc(O)cc1)c1cc(-c2ccc(Cl)cc2)n[nH]1 (racemic)", "Target Or Test System": "Staphylococcus aureus", "MIC [mg/L]": 0.04}
{"Compound": "O=C(N/N=C/c1ccccc1[N+](=O)[O-])c1cc(-c2ccc(Cl)cc2)n[nH]1", "Target Or Test System": "Staphylococcus aureus", "MIC [mg/L]": 8}
{"Compound": "COc1cc(/C=N/NC(=O)c2cc(-c3ccc(Cl)cc3)n[nH]2)ccc1O", "Target Or Test System": "Staphylococcus aureus", "MIC [mg/L]": 0.12}
{"Compound": "O=C(NN1C(=O)[C@H](Cl)[C@H]1c1ccccc1O)c1cc(-c2ccc(Cl)cc2)n[nH]1 (racemic)", "Target Or Test System": "Staphylococcus aureus", "MIC [mg/L]": 0.125}
{"Compound": "O=C(N/N=C/c1ccc(Cl)cc1)c1cc(-c2ccc(Cl)cc2)n[nH]1", "Target Or Test System": "Staphylococcus aureus", "MIC [mg/L]": 0.12}
{"Compound": "O=C(NN1C(=O)[C@H](Cl)[C@H]1c1cccc([N+](=O)[O-])c1)c1cc(-c2ccc(Cl)cc2)n[nH]1 (racemic)", "Target Or Test System": "Staphylococcus aureus", "MIC [mg/L]": 1.2}
{"Compound": "COc1ccc(C2SCC(=O)N2NC(=O)c2cc(-c3ccc(Cl)cc3)n[nH]2)cc1 (racemic)", "Target Or Test System": "Staphylococcus aureus", "MIC [mg/L]": 0.5}
{"Compound": "O=C(N/N=C/c1ccc(O)cc1)c1cc(-c2ccc(Cl)cc2)n[nH]1", "Target Or Test System": "Staphylococcus aureus", "MIC [mg/L]": 0.35}

# ---- query compound ----
Prompt: State, in one line, measured MIC of O=C(NN1C(=O)CSC1c1ccccc1[N+](=O)[O-])c1cc(-c2ccc(Cl)cc2)n[nH]1 (racemic)
Response: 2

Sourced from ChEMBL document CHEMBL2057135
